- TARGET OR TEST SYSTEM: T1, Human CD94 (human, UniProt Q13241 1-179)
- T1 construct: also called hCD94
- T1 sequence: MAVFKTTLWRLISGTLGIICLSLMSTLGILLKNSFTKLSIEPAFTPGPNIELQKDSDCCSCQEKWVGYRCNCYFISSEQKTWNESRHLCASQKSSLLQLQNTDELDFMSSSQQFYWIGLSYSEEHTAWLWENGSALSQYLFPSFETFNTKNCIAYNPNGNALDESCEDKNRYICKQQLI
- TEST DESCRIPTION: flow, Jurkat, 100 nM Ab
QUANTITY KIND: MFI normalized to WT
Give the value as a plain number.

Query :: Hello, please tell me recorded MFI normalized to WT for this one: KW1.2.1 (antibody, V domains shown) VH: EVQLVESGGGLVQPGGSLRLSCAASGSTFSSYAMSWVRQAPGKGLEWVSTISGSGGSTYYADSVKGRFTISRDNSRNTLYLQMNSLRAEDTAVYYCARGGLIPSGFDYWGQGTLVTVSS VL: DIQMTQSPSSPSASVGDRVTITCRASQSISSYLNWYQQKPGKAPKLLIYAASSLLSGVPSRFSGSGSGTDFTLTISSLQPEDFATYYCQQTYSTPLTFGQGTKVEIK
Result :: 1.13
